# Target under test: T1, recombinant human Siglec15-his protein (human, UniProt Q6ZMC9 20-263)
# T1 construct: In house made; Biotin-labeled in the capture ELISA
# T1 sequence: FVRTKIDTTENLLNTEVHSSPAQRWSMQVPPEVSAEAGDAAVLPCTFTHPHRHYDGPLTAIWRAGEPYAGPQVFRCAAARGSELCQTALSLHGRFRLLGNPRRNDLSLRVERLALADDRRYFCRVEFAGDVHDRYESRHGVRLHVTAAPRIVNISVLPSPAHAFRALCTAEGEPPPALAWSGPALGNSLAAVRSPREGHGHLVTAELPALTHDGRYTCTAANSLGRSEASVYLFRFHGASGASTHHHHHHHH
# Assay name: capture ELISA, captured antibody, biotin-labeled human Siglec15-his in solution
Readout type: EC50 (nM)

- anti-Siglec15 benchmark (ch5G12) (antibody, human IgG1, kappa, V domains shown, ch5G12 (US 20190202912A1); also called BM; Siglec15-ch5G9) VH: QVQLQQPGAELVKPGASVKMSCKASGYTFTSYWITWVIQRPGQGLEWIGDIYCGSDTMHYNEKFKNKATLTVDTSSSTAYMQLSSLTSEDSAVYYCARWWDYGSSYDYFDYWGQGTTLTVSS VL: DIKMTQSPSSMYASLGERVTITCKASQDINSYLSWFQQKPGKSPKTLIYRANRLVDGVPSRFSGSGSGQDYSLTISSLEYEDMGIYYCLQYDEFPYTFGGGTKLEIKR: 1.79
